Provide the reported Dll1/mock ratio of each item.
- system: T1, human Dll1 (human, UniProt O00548 18-723)
- T1 construct: whole, on cells
- T1 sequence (looked up): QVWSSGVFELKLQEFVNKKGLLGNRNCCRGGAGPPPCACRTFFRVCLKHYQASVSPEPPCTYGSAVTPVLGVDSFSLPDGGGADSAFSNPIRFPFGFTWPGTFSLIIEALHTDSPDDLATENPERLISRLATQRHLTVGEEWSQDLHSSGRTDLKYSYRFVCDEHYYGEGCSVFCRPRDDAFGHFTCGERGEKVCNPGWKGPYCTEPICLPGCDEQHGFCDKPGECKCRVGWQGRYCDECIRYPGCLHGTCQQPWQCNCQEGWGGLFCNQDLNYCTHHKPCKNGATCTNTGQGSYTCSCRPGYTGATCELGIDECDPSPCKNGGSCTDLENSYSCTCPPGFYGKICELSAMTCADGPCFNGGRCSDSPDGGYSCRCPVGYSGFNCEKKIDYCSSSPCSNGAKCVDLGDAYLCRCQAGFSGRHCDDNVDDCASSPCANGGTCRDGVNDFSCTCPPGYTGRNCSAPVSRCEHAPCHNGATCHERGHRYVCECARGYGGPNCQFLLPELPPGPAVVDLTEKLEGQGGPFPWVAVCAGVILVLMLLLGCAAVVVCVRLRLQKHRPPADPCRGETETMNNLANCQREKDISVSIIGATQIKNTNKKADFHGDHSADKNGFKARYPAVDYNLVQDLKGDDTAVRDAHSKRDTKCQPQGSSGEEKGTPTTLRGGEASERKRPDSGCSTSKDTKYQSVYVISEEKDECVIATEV
- procedureSummary: FACS, 15 µg/ml, 293T cells with human Dll1 vs mock

QUERY: Fill in reported Dll1/mock ratio for this entry: 4B3 (antibody, IgG4, V domains shown, Fully human; also used where no isotype is printed) VH: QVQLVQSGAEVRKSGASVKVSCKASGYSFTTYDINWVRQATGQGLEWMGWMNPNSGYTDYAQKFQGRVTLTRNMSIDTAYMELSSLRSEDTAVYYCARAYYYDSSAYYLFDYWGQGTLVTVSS VL: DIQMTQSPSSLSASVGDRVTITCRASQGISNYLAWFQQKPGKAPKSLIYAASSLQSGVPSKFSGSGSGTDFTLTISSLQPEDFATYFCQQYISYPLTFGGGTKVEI
RESULT: 1.17

QUERY: Fill in reported Dll1/mock ratio for this entry: 4B4 (antibody, IgG4, V domains shown, Fully human; used for IgG4 rows and where no isotype is printed; also called 4B4 IgG4; 4B4.1) VH: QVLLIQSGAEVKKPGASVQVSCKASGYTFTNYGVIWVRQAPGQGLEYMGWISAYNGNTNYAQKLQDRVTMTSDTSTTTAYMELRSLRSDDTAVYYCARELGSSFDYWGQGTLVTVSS VL: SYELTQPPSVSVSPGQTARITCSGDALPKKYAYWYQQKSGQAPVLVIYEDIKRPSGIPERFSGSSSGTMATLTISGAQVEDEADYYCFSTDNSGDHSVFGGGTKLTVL
RESULT: 1.23

QUERY: Fill in reported Dll1/mock ratio for this entry: 3A7 (antibody, IgG4, V domains shown, Fully human; also used where no isotype is printed) VH: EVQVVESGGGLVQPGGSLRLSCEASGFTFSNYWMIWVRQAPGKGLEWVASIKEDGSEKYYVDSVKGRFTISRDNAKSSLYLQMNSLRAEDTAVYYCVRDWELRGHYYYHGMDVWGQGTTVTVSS VL: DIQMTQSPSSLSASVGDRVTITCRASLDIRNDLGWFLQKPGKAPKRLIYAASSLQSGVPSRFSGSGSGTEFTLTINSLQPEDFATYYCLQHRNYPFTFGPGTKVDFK
RESULT: 1.06

QUERY: Fill in reported Dll1/mock ratio for this entry: 9G8 (antibody, IgG4, V domains shown, Fully human; used for IgG4 rows and where no isotype is printed; also called 9G8 IgG4) VH: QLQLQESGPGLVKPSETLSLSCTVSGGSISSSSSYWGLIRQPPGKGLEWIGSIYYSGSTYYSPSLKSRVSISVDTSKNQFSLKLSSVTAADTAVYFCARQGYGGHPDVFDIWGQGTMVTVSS VL: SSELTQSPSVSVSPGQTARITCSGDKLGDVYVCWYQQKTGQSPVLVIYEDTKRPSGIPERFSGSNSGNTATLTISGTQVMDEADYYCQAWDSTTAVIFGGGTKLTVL
RESULT: 1.23

QUERY: Fill in reported Dll1/mock ratio for this entry: 17F3 (antibody, IgG2, V domains shown, Fully human; also used where no isotype is printed) VH: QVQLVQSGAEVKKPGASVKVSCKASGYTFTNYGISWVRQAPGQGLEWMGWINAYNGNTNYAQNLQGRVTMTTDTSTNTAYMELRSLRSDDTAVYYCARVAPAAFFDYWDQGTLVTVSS VL: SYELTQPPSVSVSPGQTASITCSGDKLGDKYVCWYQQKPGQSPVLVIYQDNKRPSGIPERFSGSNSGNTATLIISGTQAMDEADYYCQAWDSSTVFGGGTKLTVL
RESULT: 1.14
